- Experiment Notes: Empagliflozin plasma pharmacokinetics (HPLC-MS/MS) in the TQT study
- Assay type: in vivo, human
- Assay Setup: human, plasma, po, 25 mg, empagliflozin 25 mg single oral dose; plasma; n=28; read-out: tmax, median
Property Measured: Tmax

What value of measured Tmax is listed for OC[C@H]1O[C@@H](c2ccc(Cl)c(Cc3ccc(O[C@H]4CCOC4)cc3)c2)[C@H](O)[C@@H](O)[C@@H]1O [Empagliflozin, empagliflozin] ?
~1.5 h

Data provenance is paper PMC3648489.
